- protocol_description: soluble on expression in E. coli; label from the status in PepcDB or PDB records
measured_quantity: soluble on expression in E. coli

* MKDLIIIGAGQAGLTMGYYLKQEGYNFLLLEAGKRVGDSWRNRYDSLQLFTPRSYSSLPGMALIGEKNEFPYKDEIATYLEEYARHFQLPVQLQTEVLKIKKEKEIFELHTPTEILQTKKVIIASGAFQQPFIPSVSANLSSHIFQIHSSQYKSPSQIPKGKVLVVGGGNSGMQIAVELAKTHEVTVSISHPLTFLPLQLFGKSIFNLLEKVGLLYAEINTKRGRWFQKRKDPIFGFEGKKLIRNGAIKLQEKVVSASRNNIMFQNGDTYSAESIIWSTGFVQNYNWIEIEQAVNEKGFPNHIKGISPVKGLYYIGLPLEHHHHHH | not soluble
* MAHHHHHHMILLQLTVVGYLNTGKTSLINSIMNNEIFTNYSHTPLPMIYYKVHKDKNRAFCVEIEDTSVDVDINNFTNMMRKEITTNSKNMKNPVFSYFENPCIPFQAHDPYNSISYGRMAYFLVFDLTNPSTFEYVKMIYLNMSSIYEKYYTLKPFISLVGNKSDLADENCALVREAENFSNEHMVQLWLTSAYTGKNVKKLFLHTINMVYNNTNLWKYDIEESGSESSES | not soluble
* MAQRFTDEVAIVTGSSNGIGRATAILLASEGAKVTITGRNAERLEESRQALLKVGVPSGHINSVVADVTTGAGQDVLIDSTLKKFGKINILINNAGALIVDPEGKTNTSTGVETCLKTFQLNFQSVVEMTQKIRPHLANTHGEIVNVSSVGAGPAAENRFPYYSAAKAALDQYSRNTAIDLIPDGIRVNIVQPGFVATGFTTAASGMSPDASAKMYEGIGANTSCIPAGYCGRPEHLASVIAFLADRKASEYIVGQTIIADGGTTLVRGRNVALATRRAE | not soluble

###

- protocol_description: soluble on expression in E. coli; label from the status in PepcDB or PDB records
measured_quantity: soluble on expression in E. coli

• MGSDKIHHHHHHMKWRGYLTPVTENYLHAYGVGYISYVLARKFHVDSVKAFVTGTLHDLGGAVPADERVTVAESIGISLNDEEREVPLLVHAKLGKYFAQTLFDITDEDMLNAILFHTTCIDRASDLVKIVFLADKIRWDRNGTPPYLDGLLAALEISLDDGCSYFLKWLWNSDLYIVHPYLSRSYGAYVRQQQYNPISLQDFSVLQGNLNENLVKKYYLHDIYQEFHRTFYHAHLASVLASKHSVNTEEAYVTSALVNMTNTIKDDELETIASVLNLNVQVPIRPQLTSILARDEYGITSLEMLKTLKSFPQIPSNHNSLLWVVVMSWICQKSIKCEVEDE = not soluble
• MDRVESLANQIFEDYKDYGVDRKEIVEKLRKLLIEFRVPENEAVRTIRNYIIREYGAPATVRRERITKIEEIKEPNKWVTVKAKVIQLWESSSPSIAQVGLIGDETGYIRFLVWTKAKKQPVDEGKSYIFRNVVVDDYGGVLRLNVTKISEIEEIEEDVKVKPPEELSEDVEVVGALVAIQQNSGLIQRCSVEGCNRVIKMGKCPEHGKTKAKDDLRIKGVLDDGYRTYEVIINEEGVESLTGINLEKAKKIAEETLDRGAVLTELKKMLLGKYLRVVGTATPRYLIAKHVEFFRPDIRKEIEKVKALLEEV = not soluble

###

- protocol_description: soluble on expression in E. coli; label from the status in PepcDB or PDB records
measured_quantity: soluble on expression in E. coli

• MRGSHHHHHHGSIEGRSAVTCDDYYYGFGCNKFCRPRDDFFGHYACDQNGNKTCMEGWMGPECNRAICRQGCSPKHGSCKLPGDCRCQYGWQGLYCDKCIPHPGCVHGICNEPWQCLCETNWGGQLCDKDLNYCGTHQPCLNGGTCSNTGPDKYQCSCPEGYSGPNCEI = soluble
• MGSDKIHHHHHHMEVAEGEFKPAFPIKPAQQLVFVHIPKCGGTSMHQFLANAKKVQPEPELSTILAGYCEPALHKHSKAAVIRDLVGPALWQTIFTFSVVRNPWDLMLSSYRWWLQKAGRFSSLRAQADEVADLGSFEGFLKSDFGGNRINECEGDILSWLSDENGQEIVDFVGRLEDIEQALQNVFERAGLAGYSEFPRLNSTVRGGYQDYYNAETKRLIQTRFQATIDRFEYQF = not soluble
• MIPIEIDSGSGFCFGVVNAIRHAEKQLEKSSDKLYCLGDIVHNTLEVERLGKKGLETIDYDAFSRLRGAKVLLRAHGEPPEIYRMAGENGVTIIDATCPVVLRLQNKIKSRYEATRSLGAQVVIYGKRGHAEVNGLVGQTEGTAIVIESEEELDKIDYTRPVILFSQTTKSLEGFGQIIDSISTRMQPGVTFEHHDTICRQVANRIPHIGAFATAHELVFFVAGEKSSNGKVLFGHCLAANPRSIFISSPEVIVPDMLVPLPASIGICGATSTPRWQMEEVASHIKALLLEHHHHHH = soluble
• MAKKKNVSVISVEKPTWFPLTDETGAFPVYGAPITIGTAVSIKPDVTTETTPDYGDSVVQDQYVAFGGAEVTLETNGYQNEVLAEITGGKKLKGGVLRSADDIASDGAFAYRRRKSNGKYRYTIFYKGKFALTSDETSTLEGSSVSYTHPEWTGSFVDVPGLGYMYSVDEDDEGVDLEMIKNWFTEVMDPRKENTTAVTGVTLDQTELNLKVGQTATLTPTITPDNASNKKYQFRSESEAIGTVTPIQGKVTAVGEGTTEIVVTTEDGNFTAKCTLNVTTAD = not soluble
• MGSDKIHHHHHHMLLIDKLSNHENFTNTEQRIADYILKNITDIPPMNIDKLSKVTYTSHSAVVRLTKKLGFEGFKDFKVAISEAVYSQTTNMNSVDANFPFDSNDSVSTISKKVAELSVESIQRTFAQLDERLIEEAANTIAKSERIFLFAQGDSQIRARSFQNKLVKLNRFAILGEEYSDEDWTAANLTKKDCAIFISYGGRISQYERMLTHFSENKIPSVVLTGNQKSPLIRLAQTAIVTTQNEYDFLKISTFSSQITFEYLLDTIFSVIYAKEYQQNIINLKNKFNLIQRGTLSEGLAKEHDSK = not soluble
• MDNEKKSMYEPGVILGGCTLRRQLNDSGEAMVFLAESGNEEKKEVIIKFFKCGYGEDEIKYLDVLTNHEQRRNIVEMLKSFETPEIRLGMVFKRYETDLFGILGDRQRLQPSTIQKYMKGLMEGLQFIHRMDYIHRDIKPENLLIDGETICIADFGETVLSTSDKVVKPGTLPYLTIEHILGYKENTKSMDIWAAACVLGAMFQGSHLFSQNSNLQTIHAIRLLLGNHTKETWPEMDKLPLMQSIELPPVGEKTFSKIENITKEAADLMEQMMKYDPTKRLMASQVLNHEYFKKEASAQAN = not soluble

###

- protocol_description: soluble on expression in E. coli; label from the status in PepcDB or PDB records
measured_quantity: soluble on expression in E. coli

- MIDLSTEFAGLRLKNPIVAASSGLTRNLKTIKDLEAAGVAAIVLKSLFEEQIEAEMSQMMSPMDYPEAADYINAYVQSNEISKHLDFLREVKREVAIPVIASINCFRSDSWVDFAKQFEEAGADALEINVMRLNTDLFFDANKAEQMYVDIISSLIKAIRIPVVVKLSKSFANIPSLVDKLRAAGAKGVVLFNRSYQPDIDIDKVQMVAGDVFTSAGEISDTIRH: not soluble
- MIVIKTYQEENASALWDVFFNTVRKVNRKDYSNEQVTAWAPESFDTDVWKNKMQSLNPFIAEIDGVIVGYSDLQDDGLIDHFFCHYQHQGKGVGSALMTHILELAKERKLPRVYSHVSITAKPFYERFGFTVVKPQCIDVRGEQLINYVMERQ: not soluble
- MGSDKIHHHHHHMKALVVGACTRPVVNSLKKLNFEVYSVSHYNPVDLNADHKKYTINDKFHGHLADKYSEKELLNLSKEYVDLVDYIFVCSGIFESKTSKTPNWDVVGNSPKRIKNISDKYKTVKKLENLGFNVPVTYLVNNKYQFEKCLSELKSVVVKPISGSGGIGVTNIDFQNTDNLDINYPVLVQERIKSESYSASFIGSNFLCFNKQLINNNIYVGNISPYVLNLKNETIQEFEEVIASLDLLGMNGIDFMLKDGIPYIIEVNPRILGTYETIELSSRYNLSKAILENKPVKPKDCFFKKIVFSDKGSSYSIDKNPFLRDIPQKGTYIEEGEPVVTIIGRNMADVREMECGILRGV: not soluble

###

- protocol_description: soluble on expression in E. coli; label from the status in PepcDB or PDB records
measured_quantity: soluble on expression in E. coli

* MGKLIDIPIVVESGQKYKTSQGVTAIKDGIKSSGQDHERLPKPKWLRIVNHTTPAYSQVKEQVQKHRLATVCEEAKCPNISECWSHGTATIMLMGAVCTRACRFCSVDTGNPHGWLDAEEPENTAETVALMNLDYVVLTSVNRDDLPDGGANHYAKTIRAIKKRSPRTKVEALTPDFQGSERDVAVLLDSGVDVFAQNVETVERLTHPVRDNRAGYQQTLNVLAFAKKYRPDVLTKTSLMLGLGETDEEIIQTMDDLRTHHVDILTLGQYLQPTKNHLPIARYVTPETFSELRQIGLKKGFFEVASGPLVRSSYRADRVFKRDNLGLDV | not soluble
* MLNQSLRPLVNVQVRSVSSKYPRPTPRHFKRRLFEAALKPELPPTVNMCIPPGLIKREHTGKSKEYSDVELALSNLVRDWMVREEFRVMAVCQFLPVPGRTLWFAKNQLRSKNIEFRSYGNKILKKIFDKTPMSSLNTVLVGNNAILLAKDISAIKSILQETDKLNWIEPLVMMADGRIVDMVDARELAKLSSLEDLRAHTVQLLGQQVAQVTISLDTVTRHLPSLLDSHISTNQEAKK | not soluble

Origin of values: the DeepSol protein solubility set
